# ASSAY_COMMENT: Extended room temperature storage of treprostinil monohydrate lot D-1007-089 (18-month stability summary: water content, assay/impurity profile)
# Assay type: physicochemical
# MEASUREMENT_PARAMETERS: 6 Months, Container 1 (closed), room temperature

{"COMPOUND": "CCCCC[C@H](O)CC[C@@H]1[C@H]2Cc3cccc(OCC(=O)O)c3C[C@H]2C[C@H]1O [TREPROSTINIL Lot# D-1007-089, treprostinil monohydrate]", "UNIT_DESCRIPTOR": "%", "TREPROSTINIL Ethyl Ester": 0.2}

====

# ASSAY_COMMENT: Extended room temperature storage of treprostinil monohydrate lot D-1007-089 (18-month stability summary: water content, assay/impurity profile)
# Type: physicochemical
# MEASUREMENT_PARAMETERS: 18 Month, Container 1 (closed), room temperature
RECORDED_METRIC: Total impurities

{"COMPOUND": "CCCCC[C@H](O)CC[C@@H]1[C@H]2Cc3cccc(OCC(=O)O)c3C[C@H]2C[C@H]1O [TREPROSTINIL Lot# D-1007-089, treprostinil monohydrate]", "RECORDED_METRIC": "Total impurities", "VALUE_OBSERVED": "0.05%"}

====

# ASSAY_COMMENT: Extended room temperature storage of treprostinil monohydrate lot D-1007-089 (18-month stability summary: water content, assay/impurity profile)
# Type: physicochemical
# MEASUREMENT_PARAMETERS: 2 Months, Container 2 (covered with Kimwipe), room temperature

{"COMPOUND": "CCCCC[C@H](O)CC[C@@H]1[C@H]2Cc3cccc(OCC(=O)O)c3C[C@H]2C[C@H]1O [TREPROSTINIL Lot# D-1007-089, treprostinil monohydrate]", "UNIT_DESCRIPTOR": "%", "Total impurities": 0.5}

====

# ASSAY_COMMENT: Extended room temperature storage of treprostinil monohydrate lot D-1007-089 (18-month stability summary: water content, assay/impurity profile)
# Type: physicochemical
# MEASUREMENT_PARAMETERS: 1 Month, Container 2 (covered with Kimwipe), room temperature
RECORDED_METRIC: Total impurities (%)

{"COMPOUND": "CCCCC[C@H](O)CC[C@@H]1[C@H]2Cc3cccc(OCC(=O)O)c3C[C@H]2C[C@H]1O [TREPROSTINIL Lot# D-1007-089, treprostinil monohydrate]", "VALUE_OBSERVED": 0.5}

====

# ASSAY_COMMENT: Extended room temperature storage of treprostinil monohydrate lot D-1007-089 (18-month stability summary: water content, assay/impurity profile)
# Format: physicochemical
# MEASUREMENT_PARAMETERS: Initial, Container 2 (covered with Kimwipe), room temperature

{"MOLECULE": "CCCCC[C@H](O)CC[C@@H]1[C@H]2Cc3cccc(OCC(=O)O)c3C[C@H]2C[C@H]1O [TREPROSTINIL Lot# D-1007-089, treprostinil monohydrate]", "UNIT_DESCRIPTOR": "%", "751W93": 0.04}

====

# ASSAY_COMMENT: Extended room temperature storage of treprostinil monohydrate lot D-1007-089 (18-month stability summary: water content, assay/impurity profile)
# Type: physicochemical
# MEASUREMENT_PARAMETERS: 6 Months, Container 2 (covered with Kimwipe), room temperature

{"MOLECULE": "CCCCC[C@H](O)CC[C@@H]1[C@H]2Cc3cccc(OCC(=O)O)c3C[C@H]2C[C@H]1O [TREPROSTINIL Lot# D-1007-089, treprostinil monohydrate]", "UNIT_DESCRIPTOR": "%", "Total impurities": 0.6}
